Source: ChEMBL document CHEMBL3988442

# target.or.system: Proteasome subunit beta (Trypanosoma cruzi) (UniProt O96673)
# Sequence (O96673 as listed by the source): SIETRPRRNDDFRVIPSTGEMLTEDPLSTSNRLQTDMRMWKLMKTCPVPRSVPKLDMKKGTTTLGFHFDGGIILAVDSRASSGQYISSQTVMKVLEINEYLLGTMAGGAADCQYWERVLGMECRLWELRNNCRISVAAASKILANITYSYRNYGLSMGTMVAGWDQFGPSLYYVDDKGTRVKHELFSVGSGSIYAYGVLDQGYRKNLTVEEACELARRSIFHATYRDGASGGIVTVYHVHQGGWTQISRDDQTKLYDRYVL
# method.description: Trypanosoma cruzi proteasome chymotrypsin-like activity (TcProtChymo) assay.
# Assay type: functional
# Design: scale not given: in the data most compounds retested in dose-response had high values
# conditions: 9.37 µM
# reported Percent Effect; entries follow
// note: answer is a bare numeric in %

Here is how some molecules turned out for Percent Effect.
- COc1ccc(CN2CCC3(CC2)CCN(CC(C)C)C3=O)cc1: -0.601
- COCC(C)NC(=O)c1cc(Br)c2c(c1)OCCO2 (stereo unspecified): 8.74
- CC(C)(C)n1ncc2c1NC(=O)CC2c1ccsc1 (stereo unspecified): 13.2
- CNc1snc(C)c1C(=O)N1CCCC(n2ccnc2C(C)C)C1 (stereo unspecified): 5
- CCOCC1CC2(CCN(Cc3ccccn3)CC2)CO1 (stereo unspecified): 11.7

Enquiry: Could you share what Percent Effect was measured for "CCN1CCN(C(=O)NCCOc2ccc3c(c2)OCO3)CC1" , tested on Proteasome subunit beta (Trypanosoma cruzi) (UniProt O96673)?
Return: 12.6
